Cited source for all entries: PubChem BioAssay (NCI)

System: SW-620 colon
assayRemarks: NCI tumour cell line growth inhibition, 48 h
Where a SMILES comes first, the peptide text is derived from it. The star is where a group is joined. OBn = c1ccc(CO*)cc1
endpointLabel: TGI

Ask | Using known records, supply TGI for COc1ccc(-c2nc(-c3nc4cc(C)c(C)cc4[nH]3)cc3c2[nH]c2ccccc23)cc1
Reply | > 100 µM

Ask | Using known records, supply TGI for Cc1ccc(NC(=O)c2ccnc(N3CCCC3)c2)cc1-c1ccc(C(=O)NCC2CC2)cc1
Reply | > 25 µM

Ask | Using known records, supply TGI for O=C(O)/C(Cl)=C(\Cl)C(=O)Nc1ccccc1
Reply | > 100 µM

Ask | Using known records, supply TGI for O=C(Cn1ccnc1[N+](=O)[O-])NCC(F)(F)C(F)(F)F
Reply | > 100 µM

Ask | Using known records, supply TGI for CC[C@H](C)C(=O)O[C@H]1CCC=C2C=C[C@H](C)C(CCC3C[C@@H](O)CC(=O)O3)[C@H]21 (stereo not given in full)
Reply | > 100 µM

Ask | Using known records, supply TGI for CCCCCCCCCCCCNC1(C)CNCCCNCCNCCCNC1
Reply | 3.27 µM

Ask | Using known records, supply TGI for COc1ccc(F)cc1C(=O)c1cnc(NC2CCN(S(C)(=O)=O)CC2)nc1N
Reply | > 16.6 µM

Ask | Using known records, supply TGI for CO[C@H](C(=O)N[C@@H](CCCCNC(=O)OCc1ccccc1)C(=O)OC(C)(C)C)[C@@H]1Cc2cc3cc(OC4CC(OC5CC(O)C(O)C(C)O5)C(O)C(C)O4)c(C)c(O)c3c(O)c2C(=O)[C@H]1OC1CC(OC2CC(OC3CC(C)(O)C(O)C(C)O3)C(O)C(C)O2)C(O)C(C)O1 (stereo not given in full)
Reply | 3.34 µM

Ask | Using known records, supply TGI for COc1cc2c3c(n(C4CCNCC4)c(=O)c2cc1OC)-c1cc2c(cc1C3=O)OCO2
Reply | 1.95 µM

Ask | Using known records, supply TGI for Cc1c(Cl)ccc2c1NC(=O)C2(O)C1Cc2ccccc2C1=O (stereo not given)
Reply | > 100 µM

Ask | Using known records, supply TGI for COC(=O)C1C(=O)O[C@@H](c2ccc(OC)cc2OC)C1C(=O)OC (stereo not given in full)
Reply | > 100 µM

Ask | Using known records, supply TGI for N#CC1=C(N2CCOCC2)CCC1
Reply | > 100 µM

Ask | Using known records, supply TGI for C#C[C@@]1(O)[C@@H](CO)O[C@@H](n2cc(F)c3c(N)ncnc32)[C@@H]1O
Reply | 2.9 µM

Ask | Using known records, supply TGI for COc1ccc(Nc2ccnc(NCCCNc3ccnc4cc(Cl)ccc34)n2)cc1
Reply | 2.56 µM

Ask | Using known records, supply TGI for O=C(O)Cc1[nH]cnc1C(=O)O
Reply | > 100 µM

Ask | Using known records, supply TGI for Cc1ccc(S(=O)(=O)N/N=C(\C(=O)Nc2cccc([N+](=O)[O-])c2)c2nc3ccc([N+](=O)[O-])cc3[nH]c2=O)cc1
Reply | > 100 µM

Ask | Using known records, supply TGI for O=C(/C=C/c1cccs1)c1ccc(C(=O)/C=C/c2cccs2)cc1
Reply | > 100 µM

Ask | Using known records, supply TGI for CCOC(=O)/C(=C\NC(C)(C)C)c1nc2ccccc2o1
Reply | > 100 µM

Ask | Using known records, supply TGI for CC(C)N1CCCOC(c2ccc([N+](=O)[O-])cc2)O1 (stereo not given)
Reply | > 100 µM

Ask | Using known records, supply TGI for COC(=O)c1nc2c3c(cccc3c1C(=O)OC)Nc1ccccc1-2
Reply | > 100 µM

Ask | Using known records, supply TGI for Cc1ccc(S(=O)(=O)n2cc(C(=O)C(=O)Nc3ccncc3)c3ccccc32)cc1
Reply | > 100 µM

Ask | Using known records, supply TGI for CCOC(=O)C1=C(C)N(NC(=O)c2ccccc2)C2(O)CCCC12C(=O)OCC (stereo not given)
Reply | > 100 µM

Ask | Using known records, supply TGI for CO[C@H](c1ccccc1)[C@H](O)[C@](O)(c1ccccc1)P(=O)(OC)OC
Reply | > 100 µM

Ask | Using known records, supply TGI for O=C1CCSc2c(cnc3ccccc23)N1
Reply | > 100 µM

Ask | Using known records, supply TGI for O=C(CC(=O)C(F)(F)F)c1csc2ccccc12
Reply | > 100 µM

Ask | Using known records, supply TGI for C=CC1(c2ccc(Br)cc2)OCCCO1
Reply | > 100 µM

Ask | Using known records, supply TGI for Nc1ccc(C(=O)NN2C(=O)C(Cl)C2c2ccccc2O)cc1 (stereo not given)
Reply | > 100 µM

Ask | Using known records, supply TGI for O=C1c2cccnc2C(=O)c2c1nc1ccccc1c2-c1cncc(-c2c3c(nc4ccccc24)C(=O)c2cccnc2C3=O)c1
Reply | 0.906 µM

Ask | Using known records, supply TGI for O=S1(=O)OCCCOS(=O)(=O)C1Br
Reply | > 100 µM

Ask | Using known records, supply TGI for CC12CC3CC(C)(C1)CC(N=[N+]=[N-])(C3)C2
Reply | > 100 µM

Ask | Using known records, supply TGI for O=C(CC1(O)C(=O)Nc2c(Cl)cc(Cl)cc21)c1ccc2ccccc2c1 (stereo not given)
Reply | 14.7 µM

Ask | Using known records, supply TGI for COc1cc(C2S/C(=C/c3ccccc3)C(=O)N2c2ccc([N+](=O)[O-])cc2)cc(OC)c1OC (stereo not given)
Reply | > 100 µM

Ask | Using known records, supply TGI for CCCCCNC1=CC(=O)c2ccccc2C1=O
Reply | > 100 µM

Ask | Using known records, supply TGI for O=C(O)CNCc1c2ccccc2[n+]([O-])c2ccccc12
Reply | > 100 µM

Ask | Using known records, supply TGI for Cn1cnc2c(NCc3ccccc3)nc(NCCO)nc21
Reply | > 426 µM

Ask | Using known records, supply TGI for COc1ccc(C(=O)N2CCN(c3ccc4[nH]c(=O)oc4c3)CC2)cc1
Reply | > 100 µM

Ask | Using known records, supply TGI for Nc1nc(N)c(-c2ccc(Cl)cc2)c(CCC(=O)Nc2cccc(C(F)(F)F)c2)n1
Reply | > 100 µM

Ask | Using known records, supply TGI for CC(Oc1ccc(Cl)cc1Cl)C(=O)NN1C(=O)CSC1c1ccc(Cl)cc1 (stereo not given)
Reply | > 100 µM

Ask | Using known records, supply TGI for NC(CCC(=O)OCc1ccccc1)C(=O)NC(CCC(=O)OCc1ccccc1)C(=O)O (stereo not given) (H-Glu(OBn)-Glu(OBn)-OH; configuration not given here)
Reply | > 100 µM

Ask | Using known records, supply TGI for CC1OC(O)CC(OC(=O)c2ccccc2)C1OC(=O)c1ccccc1 (stereo not given)
Reply | 26.7 µM
